test: Pharmacokinetic studies in rat; type: in vivo; conditions: Sprague-Dawley, rat; male SD rats, oral 10 mg/kg, plasma
Parameter: half-life. Scope: all listed entries.
Form entry: value (h) — number only.

For orientation, consider the following solved cases.
{"columns": ["Smiles", "Meas value"],
 "data": [
  ["CC(=O)/C(=N\\Nc1ccccc1C(=O)O)C(=O)Nc1ccccn1", 15.5],
  ["CCOC(=O)c1sc(NC(=O)/C(=N/Nc2ccccc2C(=O)O)C(C)=O)nc1C", 7.51]
]}

Next:
# input compound: `CCOC(=O)c1sc(NC(=O)/C(=N/Nc2ccc(O)cc2C(=O)O)C(C)=O)nc1C` ; wanted: its half-life 10.6
